Data provenance: patent US20250136586A1

study.system: CDK4/Cyclin D1 (Homo sapiens (Human), UniProt P11802)
Sequence (P11802 whole entry): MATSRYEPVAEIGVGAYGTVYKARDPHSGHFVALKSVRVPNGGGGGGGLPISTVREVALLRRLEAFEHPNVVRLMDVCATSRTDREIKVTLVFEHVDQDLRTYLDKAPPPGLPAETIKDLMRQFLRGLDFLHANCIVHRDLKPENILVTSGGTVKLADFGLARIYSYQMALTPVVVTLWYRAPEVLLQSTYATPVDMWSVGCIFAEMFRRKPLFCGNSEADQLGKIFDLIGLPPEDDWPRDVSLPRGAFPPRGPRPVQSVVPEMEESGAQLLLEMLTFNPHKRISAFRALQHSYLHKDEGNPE
Sequence (P24385 whole entry partner): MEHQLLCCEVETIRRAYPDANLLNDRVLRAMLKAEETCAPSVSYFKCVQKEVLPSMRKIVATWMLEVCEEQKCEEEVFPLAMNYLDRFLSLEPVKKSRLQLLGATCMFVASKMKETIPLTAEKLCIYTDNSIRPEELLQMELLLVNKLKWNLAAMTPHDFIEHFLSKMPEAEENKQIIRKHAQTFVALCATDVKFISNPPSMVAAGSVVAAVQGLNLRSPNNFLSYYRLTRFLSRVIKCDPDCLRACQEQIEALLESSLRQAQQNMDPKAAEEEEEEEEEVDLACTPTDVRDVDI
procedure.summary: TR-FRET kinase inhibition assay, CDK4/Cyclin D1
conditions: 1 mM ATP, 0.15 μM Rb (Ser780)-biotin substrate, read-out: CDK4D1 IC50
recorded.endpoint: pIC50
Please keep in mind that pIC50 is minus log10 of the molar concentration; only the number is needed.

Worked cases, answers included:
CC(C)n1c(CN[C@H]2C[C@@H](F)C2)cc(=O)c2ccc(-c3nc(N[C@@H]4CCOC[C@H]4O)ncc3F)cc21 | 7.59
CC(C)n1c(CN2CCCC2)cc(=O)c2ccc(-c3nc(N[C@@H]4CCOC[C@H]4O)ncc3F)cc21 | 7.72
Cc1cc(=O)c2ccc(-c3nc(N[C@@H]4CCOC[C@H]4O)ncc3F)cc2n1C(C)C | 7.82
CC(C)n1ccc(=O)c2ccc(-c3nc(N[C@@H]4CCOC[C@H]4O)ncc3F)cc21 | 7.11
Cc1c(CN2CC[C@@H](F)C2)n(C(C)C)c2cc(-c3nc(N[C@@H]4CCOC[C@H]4O)ncc3F)ccc2c1=O | 8.39

Tell me the measured pIC50 of CC(C)n1c(CN2CC(F)C2)cc(=O)c2ccc(-c3nc(N[C@@H]4CCOC[C@H]4O)ncc3F)cc21 , please. 7.52

Tell me the measured pIC50 of CC(C)NCc1cc(=O)c2ccc(-c3nc(N[C@@H]4CCOC[C@H]4O)ncc3F)cc2n1C(C)C , please. 7.85

Tell me the measured pIC50 of CC(C)n1c(CNc2ccc(F)cc2)cc(=O)c2ccc(-c3nc(N[C@@H]4CCOC[C@H]4O)ncc3F)cc21 , please. 7.68

Tell me the measured pIC50 of Cc1c(CNC(C)C)n(C(C)C)c2cc(-c3nc(N[C@@H]4CCOC[C@H]4O)ncc3F)ccc2c1=O , please. 8.03

Tell me the measured pIC50 of CC(C)n1c(CN2CCOCC2)cc(=O)c2ccc(-c3nc(N[C@@H]4CCOC[C@H]4O)ncc3Cl)cc21 , please. 7.80

Tell me the measured pIC50 of CC(C)n1cc(C2CC2)c(=O)c2ccc(-c3nc(N[C@@H]4CCOC[C@H]4O)ncc3F)cc21 , please. 7.23

Tell me the measured pIC50 of CC(C)n1c(CN)cc(=O)c2ccc(-c3nc(N[C@@H]4CCOC[C@H]4O)ncc3F)cc21 , please. 8.16

Tell me the measured pIC50 of CC(C)n1cc(Cl)c(=O)c2ccc(-c3nc(N[C@@H]4CCOC[C@H]4O)ncc3F)cc21 , please. 6.59

Tell me the measured pIC50 of Cc1c(C2CCCN2)n(C(C)C)c2cc(-c3nc(N[C@@H]4CCOC[C@H]4O)ncc3F)ccc2c1=O (stereo partly shown) , please. 8.80

Tell me the measured pIC50 of Cc1c(CN2CCC[C@@H](O)C2)n(C(C)C)c2cc(-c3nc(N[C@@H]4CCOC[C@H]4O)ncc3F)ccc2c1=O , please. 8.80

Tell me the measured pIC50 of CC(C)n1c(C(=O)N2CCOCC2)cc(=O)c2ccc(-c3nc(N[C@@H]4CCOC[C@H]4O)ncc3Cl)cc21 , please. 7.03

Tell me the measured pIC50 of CCc1cc(=O)c2ccc(-c3nc(N[C@@H]4CCOC[C@H]4O)ncc3F)cc2n1C(C)C , please. 7.82

Tell me the measured pIC50 of CC(C)n1c(CN2CC[C@@H](F)C2)cc(=O)c2ccc(-c3nc(N[C@@H]4CCOC[C@H]4O)ncc3F)cc21 , please. 8.08
